Data credit: PubChem BioAssay AID1490

# SYSTEM_UNDER_TEST: 4'-phosphopantetheinyl transferase ffp (Bacillus subtilis) (UniProt Q9F4F7)
# EXPERIMENT_NOTES: qHTS Assay for Inhibitors of Bacillus subtilis Sfp phosphopantetheinyl transferase (PPTase);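 also: the enzyme is Sfp with the accession as filed and its product quenches rhodamine fluorescence; 0% = enzyme reaction without inhibitor and -100% = no enzyme wells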
# ASSAY_SETUP: Biochemical Sfp PPTase activity
The campaign covered roughly 310,000 compounds. About 11,000 (3.5%) were called active. Roughly 4% stayed inconclusive and do not appear here. Shown is part of a subset that was picked to be rich in actives.
Measured largest response in the series, negative = inhibition, listed per entry.
Express the result in % but write the number alone.

Cc1cc(NC(=O)c2ccco2)c(=O)n(Cc2c(F)cccc2Cl)c1	-1.88

(Q) Dear colleague, I am looking for the recorded largest response in the series, negative = inhibition of the following compound: CCCCS(=O)(=O)N1C2=NC(C(=O)OC)=C(C(=O)OC)[C@@H]3N(Cc4ccccc4)c4ccccc4[C@]23C[C@H]1C(=O)OC
(A) -16

(Q) Also Cc1ccc(-c2csc(NC3OC(=O)c4ccccc43)n2)cc1 (stereo not given) ?
(A) 7.08

(Q) Also C=CCc1c(C)nc2cc(-c3ccccc3)[nH]n2c1=O ?
(A) 7.41

(Q) Also CC/C=C\C/C=C\C/C=C\C/C=C\C/C=C\C/C=C\CCC(=O)NC(C)C(=O)O (stereo not given) ?
(A) -29.1

(Q) Also NS(=O)(=O)c1ccc(CCNC(=O)Nc2ccc(Cl)cc2)cc1 ?
(A) 7.27

(Q) Also O=C1CCC(=O)N(c2ccccc2)N1 ?
(A) -3.33

(Q) Also O=C(Nc1nnc(C2=COCCO2)o1)c1ccc([N+](=O)[O-])s1 ?
(A) 5.3

(Q) Also CC(C)(C)C(=O)NC(NC(=S)Nc1ccc(S(N)(=O)=O)cc1)C(Cl)(Cl)Cl (stereo not given) ?
(A) 7.73

(Q) Also COc1ccc2[nH]c(=O)c(C3c4cc(OC)c(OC)cc4CCN3C(=O)c3ccco3)cc2c1 (stereo not given) ?
(A) -2.97
